Biological target: human TrkA (Homo sapiens (Human))
Assay: Human TrkA inhibition assay (Test Example 2)
Type: biochemical
Settings: Table 154, human TrkA inhibition; read-out: IC50
pIC50: −log10 of the molar value.
measure_name: pIC50

Take a look at these entries with their results.
* CNC(=O)c1cc(-c2nn(-c3ccc(F)cc3)c(NC(=O)N[C@@H]3CN(CCOC)O[C@H]3c3ccc(F)c(F)c3)c2C)cnc1OC (racemic) | > 7.00
* COCCN1C[C@@H](NC(=O)Nc2c(C)c(-c3cnc(OC)c(C#N)c3)nn2-c2ccccc2)[C@H](c2ccnc(F)c2)O1 (racemic) | > 7.00
* Cc1c(-c2cnc3c(cnn3C)c2)nn(-c2ccccc2)c1NC(=O)N[C@@H]1CN(Cc2cnn(C)c2)O[C@H]1c1ccc(F)c(F)c1 (racemic) | 6.00 to 7.00
* CNC(=O)c1cc(-c2nn(-c3ccccc3)c(NC(=O)N[C@@H]3C[C@@H](CCOC)O[C@H]3c3ccnc(F)c3)c2C)cn(C)c1=O | > 7.00
* COCCN1C[C@@H](NC(=O)Nc2c(C)c(-c3cnc(C(=O)NC4CC4)c(F)c3)nn2-c2ccccc2)[C@H](c2ccnc(F)c2)O1 (racemic) | > 7.00

Could you now consider this next molecule?
Q) Notebook entry, human TrkA (Homo sapiens (Human)) assay: pIC50 of COCCN1C[C@@H](NC(=O)Nc2c(C)c(-c3cnc(OC)c(C(=O)NOC)c3)nn2-c2ccccc2)[C@H](c2ccnc(F)c2)O1 (racemic) = ?
A) > 7.00

---

I'd appreciate it if you could supply pIC50 values for the items below.
Target: human TrkA (Homo sapiens (Human))
Assay: Human TrkA inhibition assay (Test Example 2)
Format: biochemical
Conditions: Table 153, human TrkA inhibition; read-out: IC50
pIC50: −log10 of the molar value.

Consider the worked cases shown below.
• COCCN1C[C@@H](NC(=O)Nc2c(C)c(-c3cnc4c(c3)nnn4C)nn2-c2ccccc2)[C@H](c2cccc(F)c2)O1 (racemic) = > 7.00
• COCCN1C[C@@H](NC(=O)Nc2c(C)c(-c3cnn(C)c3)nn2-c2ccccc2)[C@H](c2cnc(Cl)s2)O1 (racemic) = > 7.00

Let us examine a further case.
Q) Please give the measured pIC50 for this compound: COCCN1C[C@@H](NC(=O)Nc2c(C)c(-c3cnn(C)c3)nn2-c2ccc(F)c(F)c2)[C@H](c2ccc(F)c(F)c2)O1 (racemic)
A) > 7.00

---

For each entry below, report its IC50 value.
Target: human TrkA (Homo sapiens (Human))
Assay: Human TrkA inhibition assay (Test Example 2)
Type: biochemical
Conditions: Table 157, human TrkA inhibition; read-out: IC50

In the examples that follow, each entry is paired with its recorded IC50.
• COCCN1C[C@@H](NC(=O)Nc2c(C)c(-c3cnc(N(C)CCCN(C)C)nc3)nn2-c2ccccc2)[C@H](c2ccnc(F)c2)O1 (racemic) [Compound I-589] = < 100 nM
• CCN1C[C@@H](NC(=O)Nc2c(C)c(-c3cnc4c(c3)OCCO4)nn2-c2ccccc2)[C@H](c2ccc(F)c(F)c2)O1 (racemic) [Compound I-626] = < 100 nM
• CCN1C[C@@H](NC(=O)Nc2c(C)c(OCCCC(N)=O)nn2-c2ccccc2)[C@H](c2ccc(F)c(F)c2)O1 (racemic) [Compound I-663] = < 100 nM
• COCCN1C[C@@H](NC(=O)Nc2c(C)c(-c3cnc(N4CC[C@H](N(C)C)C4)nc3)nn2-c2ccccc2)[C@H](c2ccnc(F)c2)O1 [Compound I-586] = < 100 nM

Please report IC50 for every entry that follows.
1. COCCN1C[C@@H](NC(=O)Nc2c(C)c(-c3cnc(N4CC(N5CCOCC5)C4)nc3)nn2-c2ccccc2)[C@H](c2ccnc(F)c2)O1 (racemic) [Compound I-583]
2. CCN1C[C@@H](NC(=O)Nc2c(C)c(-c3ccc4nccn4c3)nn2-c2ccccc2)[C@H](c2ccc(F)c(F)c2)O1 (racemic) [Compound I-624]

A)
1: < 100 nM; 2: < 100 nM

---

Molecular target: human TrkA (Homo sapiens (Human), UniProt P04629)
Sequence (P04629 440-796): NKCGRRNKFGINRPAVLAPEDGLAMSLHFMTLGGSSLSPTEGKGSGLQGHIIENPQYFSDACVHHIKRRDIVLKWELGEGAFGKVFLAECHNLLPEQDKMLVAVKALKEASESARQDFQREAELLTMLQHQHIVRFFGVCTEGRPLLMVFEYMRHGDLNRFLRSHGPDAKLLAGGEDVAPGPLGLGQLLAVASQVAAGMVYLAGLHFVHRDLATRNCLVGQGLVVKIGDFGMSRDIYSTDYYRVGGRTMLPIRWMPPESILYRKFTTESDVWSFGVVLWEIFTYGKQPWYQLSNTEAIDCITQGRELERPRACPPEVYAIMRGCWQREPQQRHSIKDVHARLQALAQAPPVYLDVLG
Assay: Human TrkA inhibition assay (Test Example 2)
Assay type: biochemical
Settings: Table 156, human TrkA inhibition; read-out: IC50
pIC50: −log10 of the molar value.
Give measured pIC50 for each item. Keep answers brief.

Observe how each entry below is paired with its result.
• CCN1C[C@@H](NC(=O)Nc2c(C)c(-c3cnc(OC)c(C(=O)NC4CCOCC4)c3)nn2-c2ccccc2)[C@H](c2ccc(F)c(F)c2)O1 (racemic) [Compound I-545] = > 7.00
• COCCN1C[C@@H](NC(=O)Nc2c(C)c(-c3ccc(OC)cc3)nn2-c2ccccc2)[C@H](c2ccnc(F)c2)O1 (racemic) [Compound I-554] = > 7.00
• CCN1C[C@@H](NC(=O)Nc2c(C)c(-c3ccn(C)c(=O)c3)nn2-c2ccccc2)[C@H](c2ccc(F)c(F)c2)O1 (racemic) [Compound I-543] = > 7.00
• Cc1c(OCC2CCNCC2)nn(-c2ccccc2)c1NC(=O)N[C@@H]1CN(CC(F)F)O[C@H]1c1ccc(F)c(F)c1 (racemic) [Compound I-561] = > 7.00
• CCN1C[C@@H](NC(=O)Nc2c(C)c(OCC3CCNCC3)nn2-c2ccccc2)[C@H](c2ccc(F)cc2)O1 (racemic) [Compound I-562] = > 7.00
• COCCN1C[C@@H](NC(=O)Nc2c(C)c(-c3cnnc(OC)c3)nn2-c2ccccc2)[C@H](c2ccnc(F)c2)O1 (racemic) [Compound I-515] = > 7.00

Would you be so kind as to report pIC50 for each listed record?
1. COCCN1C[C@@H](NC(=O)Nc2c(C)c(-c3cnc(CN(C)C)nc3)nn2-c2ccccc2)[C@H](c2ccc(F)c(F)c2)O1 (racemic) [Compound I-528]
2. CCN1C[C@@H](NC(=O)Nc2c(C)c(-c3cnc(N4CCN(C)CC4)nc3)nn2-c2ccccc2)[C@H](c2ccc(F)c(F)c2)O1 (racemic) [Compound I-540]
3. COCCN1C[C@@H](NC(=O)Nc2c(C)c(OC3CN(C(=O)OC(C)(C)C)C3)nn2-c2ccccc2)[C@H](c2ccc(F)c(F)c2)O1 [Compound I-573]
4. CCN1C[C@@H](NC(=O)Nc2c(C)c(OCC3CN(C(C)=O)CCO3)nn2-c2ccccc2)[C@H](c2ccc(F)c(F)c2)O1 (stereo partly drawn) [Compound I-546]

A)
> 7.00
> 7.00
> 7.00
> 7.00

# batch: return pIC50 for each of the 5 molecules below
1. Cc1c(OCC2CCN(C)CC2)nn(-c2ccccc2)c1NC(=O)N[C@@H]1CN(CCF)O[C@H]1c1ccc(F)c(F)c1 (racemic) [Compound I-567]
2. COCCN1C[C@@H](NC(=O)Nc2c(C)c(C)nn2-c2ccccc2)[C@H](c2ccnc(F)c2)O1 [Compound I-521]
3. CCOc1nn(-c2ccccc2)c(NC(=O)N[C@@H]2CN(CC)O[C@H]2c2ccc(F)cc2)c1C (racemic) [Compound I-541]
4. Cc1c(OCC2CCN(C)CC2)nn(-c2ccccc2)c1NC(=O)N[C@@H]1CN(CC(F)F)O[C@H]1c1ccc(F)c(F)c1 (racemic) [Compound I-568]
5. CCOc1nn(-c2ccccc2)c(NC(=O)N[C@@H]2CN(CC)O[C@H]2c2ccc(F)c(F)c2)c1C (racemic) [Compound I-542]

A)
> 7.00
> 7.00
> 7.00
> 7.00
> 7.00

Give me pIC50 for each of these molecules, listed below.
1. COCCN1C[C@@H](NC(=O)Nc2c(C)c(OCC3CN(C(C)=O)CCO3)nn2-c2ccccc2)[C@H](c2ccc(F)c(F)c2)O1 (single isomer, unassigned) [Compound I-577]
2. CNC(=O)c1cc(-c2nn(-c3ccccc3)c(NC(=O)N[C@@H]3CN(CC(F)F)O[C@H]3c3ccc(F)c(F)c3)c2C)cnc1OC (racemic) [Compound I-551]
3. COCCN1C[C@@H](NC(=O)Nc2c(C)c(-c3cnc(NCC(F)(F)F)nc3)nn2-c2ccccc2)[C@H](c2ccnc(F)c2)O1 (racemic) [Compound I-524]

A)
["> 7.00", "> 7.00", "> 7.00"]

// each molecule listed below needs its pIC50
1. COCCN1C[C@@H](NC(=O)Nc2c(C)c(OC3CNC3)nn2-c2ccccc2)[C@H](c2ccc(F)c(F)c2)O1 [Compound I-574]
2. COCCN1C[C@@H](NC(=O)Nc2c(C)c(C)nn2-c2ccccc2)[C@H](c2cnc(F)c(F)c2)O1 [Compound I-520]

A)
["> 7.00", "> 7.00"]

---

Target: human TrkA (Homo sapiens (Human), UniProt P04629)
Assay: Human TrkA inhibition assay (Test Example 2)
Assay type: biochemical
Settings: Table 157, human TrkA inhibition; read-out: IC50
measure_name: IC50

Study these solved cases before continuing.
• CCN1C[C@@H](NC(=O)Nc2c(C)c(OCc3cc(=O)ccn3C)nn2-c2ccccc2)[C@H](c2ccc(F)c(F)c2)O1 (racemic) = < 100 nM
• CCCCN1C[C@@H](NC(=O)Nc2c(C)c(-c3cnc(OC)nc3)nn2-c2ccccc2)[C@H](c2ccc(F)c(F)c2)O1 (racemic) = < 100 nM

// next item, IC50 requested
Q) Which IC50 is reported for this molecule? COc1ncc(-c2nn(-c3ccccc3)c(NC(=O)N[C@@H]3CN(CCCO)O[C@H]3c3ccc(F)c(F)c3)c2C)cn1 (racemic)
A) 100 to 1000 nM
